Taken from patent US20140018552A1.

test system: AGE production; assay: Assay of inhibition effect on AGE production (BSA with fructose and glucose, fluorescence analysis); assay type: biochemical, bovine; conditions: 10 mg/ml BSA, 0.2 M fructose and glucose, 37° for 7 days; fluorescence Ex 360 nm/Em 465 nm; average ± standard deviation
Simple rule here: IC50 value less than 30 µg/mL is class 1, otherwise class 0.

{"columns": ["Molecule", "Class Assignment"],
 "data": [
  ["CC12CC(c3ccc(O)cc3O1)C13OC1(c1ccc(O)cc1O)Oc1cc(/C=C/c4ccc(O)cc4O)cc(O)c1C3C2=O (stereo not shown)", "class 1"],
  ["Cc1ncc(CO)c(CN)c1O [Pyridoxamine, reference compound]", "class 0"],
  ["O=C1c2c(O)cc(O)cc2OC(c2ccc(O)cc2O)C1O (stereo not shown) [Example. 8, Dihydromorin]", "class 1"],
  ["CC(C)(O)CCc1c(-c2ccc(O)cc2O)oc2cc3c(c(O)c2c1=O)C=CC(C)(C)O3", "class 0"],
  ["O=C1CC(c2ccc(O)cc2O)Oc2cc(O)cc(O)c21 (stereo not shown) [Example. 6, 2′,4′,5,7-tetrahydroxyflavanone]", "class 1"],
  ["CC1=C[C@H]2c3c(O)cc(-c4cc5ccc(O)cc5o4)cc3O[C@@]3(c4ccc(O)cc4O)Oc4cc(O)ccc4[C@H](C1)[C@@H]23", "class 0"],
  ["Oc1cc(O)cc(/C=C/c2ccc(O)cc2O)c1", "class 1"]
]}
